# method.notes: Oral bioavailability in dog at 3 mg/kg by LC-MS/MS analysis
# Type: ADME, organism-based, Canis lupus familiaris
# stated.conditions: in vivo
observable: bioavailability (%)
The reply should contain only the number, in %.

Bench note: what bioavailability did "COCCCS(=O)(=O)c1ccc(-c2ccc(CCN3CCC[C@H]3C)cc2)cc1" show?
100

* * *

# method.notes: Cmax in Sprague-Dawley rat plasma at 10 mg/kg, po and iv by LC-MS/MS analysis
# Type: ADME, organism-based
# Design: dose 10 mg/kg, route oral
observable: Cmax (ng/mL)
The reply should contain only the number, in ng/mL.

Bench note: what Cmax did "COCCS(=O)(=O)c1ccc(-c2ccc(CCN3CCC[C@H]3C)cc2)cc1" show?
184

Bench note: what Cmax did "C[C@@H]1CCCN1CCc1ccc(-c2ccc(S(C)(=O)=O)cc2)cc1" show?
218

Data credit: ChEMBL document CHEMBL1932985
